# MEASUREMENT TARGET: Voltage-gated potassium channel subunit beta-2 (Rattus norvegicus)
# ASSAY SUMMARY: KvBeta positive modulators, primary screen, biochemical, NADPH fluorescence (AID 623);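 note: fluorescence intensity change per second fitted from 20 to 320 s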
# MEASUREMENT CONTEXT: Recombinant KvBeta, NADPH fluorescence decrease slope, 10 min; at 10 µM; stronger effect = lower value
// values below are reported NADPH fluorescence slope
MEASURE: NADPH fluorescence slope

[
  {
    "COMPOUND": "COCC(C)Nc1ncnc2c1cnn2-c1ccc(Cl)cc1 (stereo unspecified)",
    "NUMERIC VALUE": "-1.2e-05"
  },
  {
    "COMPOUND": "CC(=O)Nc1ccc(N=Cc2nc(-c3ccc(C)cc3)oc2O)cc1",
    "NUMERIC VALUE": "1.5e-05"
  },
  {
    "COMPOUND": "Cc1cc(C)n(-c2c(F)c(F)c(CN3CCCCC3)c(F)c2F)n1",
    "NUMERIC VALUE": "1.9e-06"
  },
  {
    "COMPOUND": "CCOc1ccccc1-n1c(SCC(=O)NC2CCCC2)nnc1-c1ccoc1C",
    "NUMERIC VALUE": "1.9e-05"
  },
  {
    "COMPOUND": "CN(C)CCOC(=O)Cc1ccc(Cl)cc1",
    "NUMERIC VALUE": "-4.8e-05"
  },
  {
    "COMPOUND": "CCC1CCCN1Cn1cnc2c([nH]c3ccc(OC)cc32)c1=O (stereo unspecified)",
    "NUMERIC VALUE": "-1.1e-05"
  },
  {
    "COMPOUND": "COc1ccc(Cl)cc1NC(=O)CCN1CCN(c2ccccc2C)CC1",
    "NUMERIC VALUE": "-6.5e-05"
  },
  {
    "COMPOUND": "CCN(CC)CCN1C(=O)C(=O)/C(=C(/O)c2c(C)[nH]c(C(=O)OC)c2C)C1c1ccc(OC)cc1 (stereo unspecified)",
    "NUMERIC VALUE": "-4e-05"
  },
  {
    "COMPOUND": "CCOCCn1c(SCc2c(F)cccc2Cl)nc2c1c(=O)[nH]c(=O)n2C",
    "NUMERIC VALUE": "-4.5e-05"
  },
  {
    "COMPOUND": "O=C(CNC(=O)c1cc2ccccc2o1)NCc1cccs1",
    "NUMERIC VALUE": "-1.5e-06"
  },
  {
    "COMPOUND": "Cc1cc(C(=O)O)c(CSc2ncn[nH]2)o1",
    "NUMERIC VALUE": -0.000158
  }
]

----------
# ASSAY SUMMARY: inhibitors of E-selectin induction by TNFa, primary screen, imaging, HUVEC, immunofluorescence, MLSMR starter and 10KST1 sets (AID 487);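 note: 100% = median nuclei count of all wells on the same plate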
# MEASUREMENT CONTEXT: HUVEC TNFalpha-induced E-selectin immunofluorescence imaging, at 2 µM; measured here: cell number, toxicity

[
  {
    "MOLECULE": "COC(=O)[C@H]1CCCN1C(=O)Nc1cccc(Oc2c(F)c(F)c(F)c(F)c2F)c1",
    "nuclei count, %": 205
  },
  {
    "MOLECULE": "O=C(NCc1ccccc1)C1C(=O)N(Cc2ccccc2)C(=O)C1C1(O)CCCC1 (stereo not given)",
    "nuclei count, %": 108
  },
  {
    "MOLECULE": "CC1(C(=O)CSc2n[nH]c(-c3ccccc3Cl)n2)CCC(=O)O1 (stereo not given)",
    "nuclei count, %": 144
  },
  {
    "MOLECULE": "CCN1C(=O)C2(C(C#N)=C(N)Oc3n[nH]c(C(C)C)c32)c2ccccc21 (stereo not given)",
    "nuclei count, %": 97
  },
  {
    "MOLECULE": "CCCCOc1ccc(C(=O)NCC(=O)NCC(=O)OCC)cc1",
    "nuclei count, %": 108
  }
]

----------
Reported inhibition values follow for various compounds
# ASSAY SUMMARY: inhibitors of Sendai virus-induced IRF3 signaling, primary screen, TLR/RLR signaling modifier project, cell-based, Sendai virus stimulus, luciferase, 10K MLSCN set (AID 602276);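 note: firefly luciferase from ISG56 promoter only with Renilla not read in this screen; 0% = Sendai virus plus DMSO and 100% = medium plus DMSO without virus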
# MEASUREMENT CONTEXT: HEK293 RL24 IRF3 luciferase reporter, at 10 µM, stronger effect = higher value
Where a SMILES comes first, the peptide text is derived from it. The star is where a group is joined. Boc = CC(C)(C)OC(=O)*

[
  {
    "COMPOUND": "O=[n+]1c2c(n([O-])c3cc(F)c(N4CCCC4)cc31)CCC2",
    "QUANTITY UNIT": "%",
    "inhibition": 0.0339
  },
  {
    "COMPOUND": "CC1CC(C)CN(Cc2nc3c(c(=O)n(C)c(=O)n3C)n2Cc2ccccc2Cl)C1 (stereo unspecified)",
    "QUANTITY UNIT": "%",
    "inhibition": -10.4
  },
  {
    "COMPOUND": "CN(C)c1ccc(CNn2cnnc2)cc1",
    "QUANTITY UNIT": "%",
    "inhibition": 5.14
  },
  {
    "COMPOUND": "Cc1nnc(SCC(=O)NCc2ccccc2)s1",
    "QUANTITY UNIT": "%",
    "inhibition": 1.7
  },
  {
    "COMPOUND": "CCc1cc(C(=O)OC)c(NC(=O)CCC(=O)O)s1",
    "QUANTITY UNIT": "%",
    "inhibition": -0.441
  },
  {
    "COMPOUND": "Cc1noc(C)c1CSc1ccccc1C(=O)N1CCN(c2ccccc2)CC1",
    "QUANTITY UNIT": "%",
    "inhibition": 1.46
  },
  {
    "COMPOUND": "Cc1ccc(-c2nc3ccccc3[nH]2)s1",
    "QUANTITY UNIT": "%",
    "inhibition": -45.9
  },
  {
    "COMPOUND": "Cc1ccccc1-n1c(=O)cc(NCc2ccc3c(c2)OCO3)[nH]c1=O",
    "QUANTITY UNIT": "%",
    "inhibition": 16.5
  },
  {
    "COMPOUND": "O=C(c1ccc(Br)o1)N1CCN(c2ccc3nnc(-c4ccccc4)n3n2)CC1",
    "QUANTITY UNIT": "%",
    "inhibition": -4.83
  },
  {
    "COMPOUND": "COCCn1c(=N)c(C(=O)NCCc2ccccc2)cc2c(=O)n3cccc(C)c3nc21",
    "QUANTITY UNIT": "%",
    "inhibition": 9.73
  },
  {
    "COMPOUND": "O=C1CCCN1CCCNc1ncnc2c1[nH]c1ccc(Cl)cc12",
    "QUANTITY UNIT": "%",
    "inhibition": -14.5
  },
  {
    "COMPOUND": "Cc1nc2ccc(NC(=O)NCc3ccco3)cc2s1",
    "QUANTITY UNIT": "%",
    "inhibition": -22.3
  },
  {
    "COMPOUND": "O=C(CCS(=O)(=O)c1cccc2nonc12)Nc1cccc2c1CCCC2",
    "QUANTITY UNIT": "%",
    "inhibition": -1.97
  },
  {
    "COMPOUND": "Cc1ccc(C(=O)NCc2ccc3c(c2)OCO3)cc1S(=O)(=O)N1CCCCC1",
    "QUANTITY UNIT": "%",
    "inhibition": -2.9
  },
  {
    "COMPOUND": "O=C1CCCN1Cc1ncnn1-c1ccccc1",
    "QUANTITY UNIT": "%",
    "inhibition": 7.63
  },
  {
    "COMPOUND": "c1ccc(C2(Cn3ccc4ccccc43)OCCO2)cc1",
    "QUANTITY UNIT": "%",
    "inhibition": 4.02
  },
  {
    "COMPOUND": "O=C(OCC(=O)N1CCCC1)c1ccccc1OCc1ccccc1",
    "QUANTITY UNIT": "%",
    "inhibition": -11.3
  },
  {
    "COMPOUND": "Cc1cc(Cl)c(S(=O)(=O)Nc2ccc3c(c2)OCCO3)cc1OCC(N)=O",
    "QUANTITY UNIT": "%",
    "inhibition": 32.8
  },
  {
    "COMPOUND": "CCN1CCN(C(CNC(=O)c2ccc3c(c2)OCO3)c2cccnc2)CC1 (stereo unspecified)",
    "QUANTITY UNIT": "%",
    "inhibition": -18.9
  },
  {
    "COMPOUND": "COCCOC(=O)c1[nH]c2c(c1C)C(=O)CC(c1ccco1)C2 (stereo unspecified)",
    "QUANTITY UNIT": "%",
    "inhibition": 14.2
  },
  {
    "COMPOUND": "CNC(=O)CSc1nnc(-c2ccc(S(=O)(=O)N3CCCC3)cc2)n1-c1cccc(C)c1C",
    "QUANTITY UNIT": "%",
    "inhibition": 12.2
  },
  {
    "COMPOUND": "Cc1ccc(CSC2=NCCN2C(=O)C2CC2)cc1",
    "QUANTITY UNIT": "%",
    "inhibition": 11
  },
  {
    "COMPOUND": "CSCCC(NC(=O)OC(C)(C)C)C(=O)NC(CC(C)C)C(N)=O (stereo not drawn) (Boc-Met-Leu-NH2; configuration not given here)",
    "QUANTITY UNIT": "%",
    "inhibition": 5.67
  },
  {
    "COMPOUND": "Cc1ccccc1-n1c(=O)c2ccccc2n2nnnc12",
    "QUANTITY UNIT": "%",
    "inhibition": -17
  },
  {
    "COMPOUND": "CCOC(=O)c1ccc(NC(=O)CCc2nc(-c3cccc(C)c3)no2)cc1",
    "QUANTITY UNIT": "%",
    "inhibition": -14.6
  },
  {
    "COMPOUND": "CC(=O)c1cccc(NC(=O)CCOc2ccccc2)c1",
    "QUANTITY UNIT": "%",
    "inhibition": -37.6
  },
  {
    "COMPOUND": "O=C1c2cccnc2C(=O)N1c1cccc(-c2nc3ccccc3o2)c1",
    "QUANTITY UNIT": "%",
    "inhibition": 13.3
  },
  {
    "COMPOUND": "CCc1ccc(NC(=O)CS(=O)CC(=O)NCC2OCCc3ccccc32)cc1 (stereo unspecified)",
    "QUANTITY UNIT": "%",
    "inhibition": 9.39
  },
  {
    "COMPOUND": "CCCOc1cccc(C(=O)N(Cc2ccco2)C2CCS(=O)(=O)C2)c1 (stereo unspecified)",
    "QUANTITY UNIT": "%",
    "inhibition": 2.23
  },
  {
    "COMPOUND": "C=CCSc1nc2sc(C)c(C)c2c(=O)[nH]1",
    "QUANTITY UNIT": "%",
    "inhibition": -11.3
  },
  {
    "COMPOUND": "O=C(CN1CCN(Cc2ccc3c(c2)OCO3)CC1)Nc1ccc2c(c1)OCCO2",
    "QUANTITY UNIT": "%",
    "inhibition": 0.946
  },
  {
    "COMPOUND": "N#Cc1c(N)nc2c(c1-c1ccncc1)CCCCC2",
    "QUANTITY UNIT": "%",
    "inhibition": 12.7
  },
  {
    "COMPOUND": "CCOC(=O)c1ccc(Oc2cc(C)nc(SC)n2)cc1",
    "QUANTITY UNIT": "%",
    "inhibition": 15.8
  },
  {
    "COMPOUND": "CCCCNc1cc(C)oc(=O)c1C(C)=O",
    "QUANTITY UNIT": "%",
    "inhibition": -0.373
  },
  {
    "COMPOUND": "Cc1ccc(-n2cnnn2)c2cccnc12",
    "QUANTITY UNIT": "%",
    "inhibition": 5.45
  },
  {
    "COMPOUND": "Cc1cc(C(=O)NCc2ccc(S(N)(=O)=O)cc2)cs1",
    "QUANTITY UNIT": "%",
    "inhibition": 13.4
  },
  {
    "COMPOUND": "CC1CCN(S(=O)(=O)c2cccc(C(=O)Nc3ccccn3)c2)CC1",
    "QUANTITY UNIT": "%",
    "inhibition": 18.4
  },
  {
    "COMPOUND": "COc1ccc(N2CCN(CCNC(=O)CCS(=O)(=O)c3cccc4nsnc34)CC2)cc1",
    "QUANTITY UNIT": "%",
    "inhibition": 16.8
  },
  {
    "COMPOUND": "Cc1ccc(-n2nnnc2SCC(=O)c2cc(C)n(-c3cc(C)on3)c2C)cc1",
    "QUANTITY UNIT": "%",
    "inhibition": 12.6
  },
  {
    "COMPOUND": "O=C(NCc1cccs1)C1CC(=O)N(C2CCCC2)C1 (stereo unspecified)",
    "QUANTITY UNIT": "%",
    "inhibition": -9.61
  },
  {
    "COMPOUND": "Cc1ccc(Cn2c(NCCc3ccccc3)nc3c2c(=O)n(C)c(=O)n3C)cc1",
    "QUANTITY UNIT": "%",
    "inhibition": 34.6
  },
  {
    "COMPOUND": "CCOc1nc(OCC)nc(N2CCC(C)CC2)n1",
    "QUANTITY UNIT": "%",
    "inhibition": 16.6
  },
  {
    "COMPOUND": "CCOC(=O)N1CCN(S(=O)(=O)c2cc(Cl)ccc2Cl)CC1",
    "QUANTITY UNIT": "%",
    "inhibition": 14.8
  },
  {
    "COMPOUND": "CCc1ccc(CNCc2cccnc2)cc1",
    "QUANTITY UNIT": "%",
    "inhibition": 3.34
  },
  {
    "COMPOUND": "c1ccc2ncc(-n3cnnn3)cc2c1",
    "QUANTITY UNIT": "%",
    "inhibition": 9.03
  },
  {
    "COMPOUND": "CC1=C(C(=O)Nc2ccccc2C)C2(CCCC2)C(C(N)=O)C(=O)N1 (stereo unspecified)",
    "QUANTITY UNIT": "%",
    "inhibition": 13.6
  }
]
